The following compounds are listed with their measured inhibition values.
experiment: Antioxidant activity assessed as inhibition of peroxidation of linolenic acid at 7.4 ug/mL by TBARS assay; format: functional
Units required after the number.

Known inhibition results, listed for orientation:
Cc1cc(C(C)(C)C)c(O)c(C(C)(C)C)c1    42.8%
Cc1cc(O)cc2oc3cc(O)cc(O)c3c(=O)c12    -7.4%
Cc1c(O)c(O)cc2oc3cc(O)cc(O)c3c(=O)c12    17%

Could you now consider this next compound?
Request: Please report the recorded inhibition for O=C(O)c1ccc(CO)o1 .
Response: 2.6%
